Tested on: DIV14
Experiment: qHTS profiling for inhibitors of Plasmodium falciparum proliferation (AID 504749); note: nearly all actives have a fitted effect of over 60% in size
Settings: P. falciparum in erythrocytes, SYBR Green DNA, 72 h; series mostly up to 28.7 µM
Records with an inconclusive call do not appear. The source made the active and inactive calls. Calls come from the whole dose curve; as a rule, active = well fitted inhibition curve with a large enough effect; inconclusive = small, poorly fitted or top-dose-only effect; inactive = flat fitted curve, though single readings scatter.
Outcomes: active, inactive

> print(dat)
                                    compound  class.assignment
 1  CC(C)(C)NCC(O)c1cc(Cl)c(N)c(C(F)(F)F)c1 (stereo not given)            active
 2       O=C(Nc1ccc(Br)cc1)c1cc(Br)cc(Br)c1O          inactive
 3                               CC(C)NC(C)C          inactive
 4                      Nc1nc(N)nc(NC2CC2)n1          inactive
 5  O=C1Nc2ccc(Cl)cc2C(c2ccccc2Cl)=NC1O (stereo not given)          inactive
 6                            NCCc1ccc(O)cc1          inactive
 7                COc1c2c(cc3c1OCO3)CCN(C)C2          inactive
 8                             Oc1ccc(Cl)cc1          inactive
 9  O=P1(N(CCCl)CCCl)NCCCO1 (stereo not given)          inactive
10                     Clc1cccc(SC2CCNCC2)n1          inactive
11  CN1C[C@H](C(=O)N[C@]2(C)O[C@@]3(O)[C@@H]4CCCN4C(=O)[C@H](Cc4ccccc4)N3C2=O)C=C2c3cccc4[nH]cc(c34)C[C@H]21            active
12                   Nc1ccc([As](=O)(O)O)cc1          inactive
13  CC(C)=CC1C(C(=O)OCN2C(=O)C3=C(CCCC3)C2=O)C1(C)C (stereo not given)          inactive
14  CN1CCC(O)(c2ccc(F)cc2)C(C(=O)c2ccc(F)cc2)C1 (stereo not given)          inactive
15  CCOC(=O)CC(SP(=S)(OC)OC)C(=O)OCC (stereo not given)          inactive

* * *

Molecular target: Bile acid receptor (Homo sapiens)
Test: qHTS assay for small molecule agonists of farnesoid X receptor signaling (AID 588527);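 note: 0% = vehicle basal and 100% = reference agonist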
Settings: HEK293T FXR-UAS-bla, beta-lactamase ratio, 16 h; active compounds read high
Records with an inconclusive call do not appear.

Compound	Unit label	activation
O=c1[nH]c(=O)n([C@H]2C[C@H](O)[C@@H](CO)O2)cc1Br	%	-3.6
CCOC(=O)c1ccc(O)cc1	%	0.927
Nc1nc(Cl)nc2c1ncn2[C@H]1C[C@H](O)[C@@H](CO)O1	%	-0.12
O=C(O)c1cc(-c2ccccc2)nc2ccccc12	%	-1.96
CC(=O)O[C@H]1C(=O)[C@@]2(C)[C@H]([C@H](OC(=O)c3ccccc3)[C@]3(O)C[C@H](OC(=O)[C@H](O)[C@@H](NC(=O)c4ccccc4)c4ccccc4)C(C)=C1C3(C)C)[C@]1(OC(C)=O)CO[C@@H]1C[C@@H]2O	%	3.09
Cc1c(C)c2c(c(C)c1O)CCC(C)(COc1ccc(CC3SC(=O)NC3=O)cc1)O2 (centres undefined)	%	9.23
CC(O)C(=O)O (centres undefined)	%	-0.922
CC(=O)O[C@]1(C(C)=O)CC[C@H]2[C@@H]3C[C@H](C)C4=CC(=O)CC[C@]4(C)[C@H]3CC[C@@]21C	%	0.881
CN1C[C@H](C(=O)N[C@]2(C)O[C@@]3(O)[C@@H]4CCCN4C(=O)[C@H](Cc4ccccc4)N3C2=O)C=C2c3cccc4[nH]cc(c34)C[C@H]21	%	2.53

* * *

Conditions: Ebola virus entry assay, blue channel fluorescence
Active and inactive are the calls of the source.
Outcomes: active, inactive

> print(dat)
                                    molecule  class.assignment
 1                    CCOC(=O)c1ccc(O)c(O)c1          inactive
 2  O=C(NCC1CCCCN1)c1cc(OCC(F)(F)F)ccc1OCC(F)(F)F (stereo not drawn)            active
 3  CCCCCCCCCCOc1cc2c(=O)c(C(=O)OCC)c[nH]c2cc1OCC          inactive
 4  COc1ccc(C(=O)N2CCN(CC(=O)N3CCOCC3)CC2)cc1          inactive
 5  CC1CC(OC(=O)c2ccccc2O)CC(C)(C)C1 (stereo not drawn)          inactive
 6     COc1ccc(S(=O)(=O)Nc2nnc(CC(C)C)s2)cc1          inactive
 7  CC(C(=O)O)c1ccc2c(c1)CC(=O)c1ccccc1S2 (stereo not drawn)          inactive
 8  O=C1CN(/N=C/c2ccc([N+](=O)[O-])o2)C(=O)N1          inactive
 9                     O=c1[nH]cnc2nc[nH]c12          inactive
10                       CC(C)(C)c1ccc(O)cc1          inactive
11              CC(C)(C(=O)c1cccnc1)c1cccnc1          inactive
12                              Nc1ccc(O)cc1          inactive
13                            O=C(O)CCC(=O)O          inactive

* * *

Assay: Primary qHTS to identify inhibitors of SARS-CoV-2 cell entry (AID 1645846); note: nearly all actives have a fitted effect of over 45% in size
Settings: SARS-CoV-2 pseudovirus cell entry assay, luminescence; series mostly up to 57.1 µM
Records with an inconclusive call do not appear. Active and inactive are the calls of the source. The call rests on the fitted dose curve.
Outcomes: active, inactive

> print(dat)
                                    molecule  class.assignment
 1  Nc1ncnc2c1ncn2[C@@H]1O[C@H](CO)[C@@H](O)[C@H]1O          inactive
 2     Cc1ccccc1OCC(O)CO (centres undefined)          inactive
 3  O=C(O)C(S)C(S)C(=O)O (centres undefined)          inactive
 4              O=C1c2c(O)cccc2Cc2cccc(O)c21          inactive
 5                       CCCCCCCCCCCCSCCOCCO          inactive
 6                         Nc1ccc(C(=O)O)cc1          inactive
 7               NC(N)=NC(=O)Cc1c(Cl)cccc1Cl          inactive
 8           COc1nccnc1NS(=O)(=O)c1ccc(N)cc1          inactive
 9              CC(C)(C(=O)c1cccnc1)c1cccnc1          inactive
10  NS(=O)(=O)c1cc2c(cc1C(F)(F)F)NC(Cc1ccccc1)NS2(=O)=O (centres undefined)          inactive
11  CC(C)(Sc1cc(C(C)(C)C)c(O)c(C(C)(C)C)c1)Sc1cc(C(C)(C)C)c(O)c(C(C)(C)C)c1          inactive
12  COc1ccc(C(=O)CC(=O)c2ccc(C(C)(C)C)cc2)cc1          inactive
13          O=C(O)COc1nn(Cc2ccccc2)c2ccccc12          inactive
14  O=c1[nH]c(=O)n([C@H]2O[C@H](CO)[C@@H](O)[C@@H]2O)cc1/C=C\Br          inactive
15                   O=C(Oc1ccccc1)c1ccccc1O          inactive
16  CCCCC(CC)CN1CN(CC(CC)CCCC)CC(C)(N)C1 (centres undefined)          inactive
17  Cc1cnc(NC(=O)C2=C(O)c3ccccc3S(=O)(=O)N2C)s1          inactive
18  O=C(CS(=O)Cc1ccco1)NC/C=C\COc1cc(CN2CCCCC2)ccn1 (centres undefined)          inactive
19  CC(=O)OCC(=O)[C@@]1(OC(C)=O)[C@@H](C)C[C@H]2[C@@H]3C[C@H](F)C4=CC(=O)C=C[C@]4(C)[C@@]3(F)[C@@H](O)C[C@@]21C          inactive
20  CO[C@@]1(NC(=O)CSCC#N)C(=O)N2C(C(=O)O)=C(CSc3nnnn3C)CS[C@@H]21          inactive
21      COc1cc(NS(=O)(=O)c2ccc(N)cc2)nc(C)n1          inactive
22                         O=C(O)/C=C\C(=O)O          inactive
23  O=c1c(C2CC(c3ccc(-c4ccc(Br)cc4)cc3)Cc3ccccc32)c(O)sc2ccccc12 (centres undefined)            active
24                O=C1c2ccccc2C(=O)c2ccccc21          inactive
